meta.source: patent US20230265094A1

Please go through the items and note down their pEC50.
- assay.system: RIPK1 (Homo sapiens)
- Construct: recombinant GST-RIPK1 kinase domain (residues 1-327) enzyme produced from baculovirus-transfected Sf21 cells
- Sequence (Q13546 1-327): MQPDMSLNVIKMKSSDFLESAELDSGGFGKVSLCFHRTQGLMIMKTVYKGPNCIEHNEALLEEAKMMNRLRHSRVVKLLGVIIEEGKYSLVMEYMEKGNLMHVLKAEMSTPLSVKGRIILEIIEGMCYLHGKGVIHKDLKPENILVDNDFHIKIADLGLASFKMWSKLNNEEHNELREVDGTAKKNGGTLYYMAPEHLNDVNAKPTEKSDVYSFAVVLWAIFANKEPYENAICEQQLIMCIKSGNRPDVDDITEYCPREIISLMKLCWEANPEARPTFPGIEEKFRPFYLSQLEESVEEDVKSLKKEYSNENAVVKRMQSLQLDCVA
- assay.overview: RIPK1-ADP-Glo enzymatic assay
- experimental.conditions: ADP-Glo luminescent ADP detection; 25 nM GST-RIPK1 kinase domain (residues 1-327), 300 μM ATP, dephosphorylated-MBP substrate; 30 min pre-incubation, 150 min reaction
Structures can show the parent of a compound that is named as a salt.
Give only the number. pEC50 is defined as minus log10 of concentration in molar units.

Result for C[C@@H]1[C@@H](Oc2ccc(F)cc2)CN1C(=O)N1N=CC[C@H]1c1cncc(F)c1 [Example 2.22] , tested on RIPK1 (Homo sapiens), pEC50: 8.12

Result for Cc1noc(C2CN(C(=O)N3N=CC[C@H]3c3cc(F)cc(F)c3)C2)n1 [Example 1.55] , tested on RIPK1 (Homo sapiens), pEC50: 6.76

Result for N#Cc1cc(OC2CN(C(=O)N3N=CC[C@H]3c3cc(F)cc(F)c3)C2)ncn1 (single isomer, unassigned) [Example 1.6] , tested on RIPK1 (Homo sapiens), pEC50: 7.08

Result for CC1(Oc2ccc(F)cc2)CN(C(=O)N2N=CC[C@H]2c2cncc(F)c2)C1 (single isomer, unassigned) [Example 2.31] , tested on RIPK1 (Homo sapiens), pEC50: 7.77

Result for CC1(Oc2ccccc2)CN(C(=O)N2N=CC[C@H]2c2cc(F)cc(F)c2)C1 [Example 1.1, TFA salt] , tested on RIPK1 (Homo sapiens), pEC50: 8.60

Result for O=C(N1CC(O)(C2CC2)C1)N1N=CC[C@H]1c1cc(F)cc(F)c1 [Example 1.34] , tested on RIPK1 (Homo sapiens), pEC50: 5.61

Result for O=C(N1CC(OCc2ccccc2)C1)N1N=CC[C@H]1c1cc(F)cc(F)c1 [Example 1.25] , tested on RIPK1 (Homo sapiens), pEC50: 7.93

Result for O=C(N1CC(Nc2ccccc2)C1)N1N=CC[C@H]1c1ccc(Cl)cc1 [Example 2.9] , tested on RIPK1 (Homo sapiens), pEC50: 7.64

Result for CC1(Oc2ccc(F)cc2)CN(C(=O)N2N=CC[C@H]2c2cc(F)cc(F)c2)C1 [Example 2.33] , tested on RIPK1 (Homo sapiens), pEC50: 7.70

Result for O=C(N1CC(F)(c2ccccc2)C1)N1N=CC[C@H]1c1cc(F)cc(F)c1 [Example 1.43] , tested on RIPK1 (Homo sapiens), pEC50: 6.11

Result for O=C(N1CC(O)C1)N1N=CC[C@H]1c1cc(F)cc(F)c1 [Example 1.15] , tested on RIPK1 (Homo sapiens), pEC50: 5.43

Result for Cc1ncc([C@@H]2CC=NN2C(=O)N2C[C@H](Oc3ccc(F)cc3)[C@H]2C)cc1F [Example 2.23] , tested on RIPK1 (Homo sapiens), pEC50: 8.00

Result for N#Cc1cc(C(F)(F)C2CN(C(=O)N3N=CC[C@H]3c3cc(F)cc(F)c3)C2)ccn1 [Example 2.41] , tested on RIPK1 (Homo sapiens), pEC50: 7.64

Result for O=C(N1CC(OC2CCCC2)C1)N1N=CC[C@H]1c1cc(F)cc(F)c1 [Example 1.17, TFA salt] , tested on RIPK1 (Homo sapiens), pEC50: 7.94

Result for CN(c1ccccc1)C1CN(C(=O)N2N=CC[C@H]2c2cc(F)cc(F)c2)C1 [Example 2.17, TFA salt] , tested on RIPK1 (Homo sapiens), pEC50: 8.15

Result for CS(=O)(=O)C1CN(C(=O)N2N=CC[C@H]2c2cc(F)cc(F)c2)C1 [Example 1.54] , tested on RIPK1 (Homo sapiens), pEC50: 5.37
